# Tgt: CD73 on U138 human neuroglioma cells (Homo sapiens, UniProt P21589)
# Construct: U138 cells were obtained from ATCC and cultured in DMEM with 10% FBS; host or cells: U138 human neuroglioma cells
# Sequence (P21589 27-549): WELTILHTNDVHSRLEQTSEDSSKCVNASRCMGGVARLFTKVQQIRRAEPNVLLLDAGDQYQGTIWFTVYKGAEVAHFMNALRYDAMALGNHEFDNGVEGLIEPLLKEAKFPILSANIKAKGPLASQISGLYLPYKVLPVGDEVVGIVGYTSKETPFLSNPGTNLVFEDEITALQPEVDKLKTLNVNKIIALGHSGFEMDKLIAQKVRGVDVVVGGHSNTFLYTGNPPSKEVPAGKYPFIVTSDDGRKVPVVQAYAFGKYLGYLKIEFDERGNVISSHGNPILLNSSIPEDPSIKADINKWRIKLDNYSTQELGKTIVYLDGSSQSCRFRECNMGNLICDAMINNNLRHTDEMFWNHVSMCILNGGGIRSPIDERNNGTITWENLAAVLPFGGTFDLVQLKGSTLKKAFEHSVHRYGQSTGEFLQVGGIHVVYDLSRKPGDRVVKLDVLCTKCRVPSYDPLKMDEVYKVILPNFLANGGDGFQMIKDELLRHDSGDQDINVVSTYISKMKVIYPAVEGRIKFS
# Protocol: CD73 Cell-Based Assay
# Test Settings: U138 cells, AMP substrate, 2 hours at 37° C., inorganic phosphate by malachite green
# Experimental: U138 human neuroglioma cells were used in these experiments. U138 cells were obtained from ATCC and cultured in DMEM with 10% FBS. 2500 cells were seeded into 96-well plate with 100 μL of media the day before the experiment. […] 50 μL of supernatant was transferred to a 96-well assay plate and the concentration of inorganic phosphate was determined using malachite green reagent (R&D System; Cat: DY996).
Measurement Type: IC50

Below, 8 molecules whose answers are already recorded.
Molecule	Measurement Type	Result
C[C@H](Nc1nc(Cl)nc2c1ccn2[C@@H]1O[C@H](COCP(=O)(O)O)[C@@H](O)[C@H]1O)c1ccc(Cl)cc1	IC50	< 10 nM
CC(C)(C)C(=O)OCOP(=O)(COC[C@H]1O[C@@H](n2ccc3c(NC4CCCC4)nc(Cl)nc32)[C@H](O)[C@@H]1O)OCOC(=O)C(C)(C)C	IC50	> 1000 nM
O=P(O)(O)COC[C@H]1O[C@@H](n2ccc3c(NC4CCC(F)(F)CC4)nc(Cl)nc32)[C@H](O)[C@@H]1O	IC50	< 10 nM
Cc1cc2c(NC3CCCC3)nc(Cl)nc2n1[C@@H]1O[C@H](COCP(=O)(O)O)[C@@H](O)[C@H]1O	IC50	10 to 100 nM
CCNc1nc(Cl)nc2c1ccn2[C@@H]1O[C@H](CS(=O)(=O)CP(=O)(O)O)[C@@H](O)[C@H]1O	IC50	10 to 100 nM
O=P(O)(O)CP(=O)(O)OC[C@H]1O[C@@H](n2ccc3c(NC4CCCC4)nc(Cl)nc32)[C@H](O)[C@@H]1O	IC50	< 10 nM
C[C@H](Nc1nc(C#N)nc2c1ccn2[C@@H]1O[C@H](COCP(=O)(O)O)[C@@H](O)[C@H]1O)c1ccccc1F	IC50	< 10 nM
C[C@H](c1ccccc1)N(C)c1nc(C#N)nc2c1ncn2[C@@H]1O[C@H](COCP(=O)(O)O)[C@@H](O)[C@H]1O	IC50	10 to 100 nM

Lookup: IC50 / CD73 on U138 human neuroglioma cells (Homo sapiens, UniProt P21589) / `N#Cc1nc(N2CCC2)c2ccn([C@@H]3O[C@H](COCP(=O)(O)O)[C@@H](O)[C@H]3O)c2n1`
Found: 10 to 100 nM

Lookup: IC50 / CD73 on U138 human neuroglioma cells (Homo sapiens, UniProt P21589) / `C[C@@H](Nc1nc(Cl)nc2c1ccn2[C@@H]1O[C@H](CS(=O)(=O)CP(=O)(O)O)[C@@H](O)[C@H]1O)c1ccc(F)cc1`
Found: < 10 nM

Lookup: IC50 / CD73 on U138 human neuroglioma cells (Homo sapiens, UniProt P21589) / `N#Cc1nc(NC2CCCCC2)c2ccn([C@@H]3O[C@H](COCP(=O)(O)O)[C@@H](O)[C@H]3O)c2n1`
Found: < 10 nM

Lookup: IC50 / CD73 on U138 human neuroglioma cells (Homo sapiens, UniProt P21589) / CC(Nc1ncnc2c1ncn2[C@@H]1O[C@H](COCP(=O)(O)O)[C@@H](O)[C@H]1O)c1ccccc1 (stereo partly shown)
Found: 100 to 1000 nM

Lookup: IC50 / CD73 on U138 human neuroglioma cells (Homo sapiens, UniProt P21589) / O=P(O)(O)COC[C@H]1O[C@H](c2c[nH]c3c(N4CC5CCCC5C4)nc(Cl)nc23)[C@H](O)[C@@H]1O (stereo partly shown)
Found: < 10 nM

All values here come from patent US11591355B2.
